Value source: patent US20200338203A1

- test_target: T1, Human EphA2 (Human, UniProt P29317 24-537)
- T1 construct: extracellular domain; also called EphA2 (Ecto), Human
- T1 sequence (P29317 24-537): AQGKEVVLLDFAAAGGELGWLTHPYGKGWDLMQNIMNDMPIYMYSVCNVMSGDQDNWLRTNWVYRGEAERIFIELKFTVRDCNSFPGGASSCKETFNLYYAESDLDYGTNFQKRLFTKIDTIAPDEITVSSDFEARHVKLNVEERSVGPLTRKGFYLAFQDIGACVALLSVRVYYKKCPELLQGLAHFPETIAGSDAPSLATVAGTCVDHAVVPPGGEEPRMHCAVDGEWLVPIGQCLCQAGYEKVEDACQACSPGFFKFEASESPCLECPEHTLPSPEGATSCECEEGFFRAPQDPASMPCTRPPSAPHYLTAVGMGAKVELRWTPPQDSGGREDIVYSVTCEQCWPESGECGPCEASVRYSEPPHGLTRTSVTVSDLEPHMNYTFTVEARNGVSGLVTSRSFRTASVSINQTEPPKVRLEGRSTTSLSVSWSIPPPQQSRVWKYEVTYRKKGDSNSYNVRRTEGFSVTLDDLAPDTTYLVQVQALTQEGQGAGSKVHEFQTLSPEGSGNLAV
- assay_info: FP competition; competitor: fluorescent Compound 66
Numbered stars: 1 amine (or outer) side, 2 acyl side, 3 side chain; on linkers, the order of the positions; unused ones are H or OH. Bridge positions count the residues as written; N and C are the ends. Square brackets hold non-standard residues; d marks the D form. Ends that are not written are not given here. TBMB = c1c(C[*:1])cc(C[*:3])cc1C[*:2]; Sar = CNCC(=O)O
Quick reference: pKi of the listed items.
Lab note: report pKi as minus log10 of the concentration in molar units, number only.

Take a look at these entries with their results.
[Sar][Sar]ACPWGPFWCPVN[dA]PGC (linker 4-11-18 via TBMB, bicyclic peptide) [Compound 302] : 5.85
[Sar][Sar]ACPWGPFWCPVNRAGC (linker 4-11-18 via TBMB, bicyclic peptide) [Compound 104] : 6.71
[Sar][Sar]ACPWGPFWCPVNAPGC (linker 4-11-18 via TBMB, bicyclic peptide) [Compound 293] : 6.15
[Sar][Sar]ACPWGPFWCPVNRPAC (linker 4-11-18 via TBMB, bicyclic peptide) [Compound 111] : 6.62
[Sar][Sar]ACPWGPAWCPVNRPGC (linker 4-11-18 via TBMB, bicyclic peptide) [Compound 83] : 6.54

Prompt line: Entry [Sar][Sar]ACAWGPFWCPVNRPGC (linker 4-11-18 via TBMB, bicyclic peptide) [Compound 286] : reported pKi = ?
Response line: 6.05

Prompt line: What does the record list as pKi for [Sar][Sar]ACPWGAFWCPVNRPGC (linker 4-11-18 via TBMB, bicyclic peptide) [Compound 289] ?
Response line: 5.96
